Measured values drawn from PubChem BioAssay (Tox21) for this set.

assay: qHTS assay to identify small molecule agonists of H2AX (AID 1224845); also: % is scaled to controls: 0 for no effect and ±100 for the full control effect
test-parameters: CHO-K1 phospho-H2AX Ser139 HTRF, 3 h; series mostly up to 154 µM
Inconclusive results are not listed. The source made the active and inactive calls. Calls follow the shape of the dose curve; as a rule, active = well fitted activation curve with a large enough effect in the signal ratio in the repeat runs (not every such curve was filed as active); inconclusive = weak or mixed curves; inactive = flat fitted curve, though single readings scatter; the % refers to the signal ratio.
measured-metric: outcome

{"smi": "Clc1ccc2c(Cl)ccnc2c1", "result": "inactive"}
{"smi": "Nc1ccc(Cl)c([N+](=O)[O-])c1", "result": "inactive"}
{"smi": "Oc1ccc2c(c1)CCC2", "result": "inactive"}

---

assay: qHTS assay to identify small molecule antagonists of the estrogen related receptor (ERR) signaling pathway - cell viability counter screen (AID 1224818);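 also: viability measured after 17.5 h of compound exposure; % is scaled to controls: 0 for no effect and ±100 for the full control effect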
test-parameters: ERR reporter cell line viability counter screen; series mostly up to 46.1 µM
Results filed as inconclusive are left out. Active and inactive are the calls of the source. Calls follow the shape of the dose curve; as a rule, active = well fitted cell-killing curve with a large enough effect in the repeat runs; inconclusive = weak or mixed curves; inactive = flat fitted curve, though single readings scatter.
Hi! Could you answer with just one of these? active, inactive

Answered examples (4):
{"molecule": "O=C(O)CCC/C=C\\C[C@@H]1[C@@H](/C=C/[C@H](O)C2Cc3ccccc3C2)[C@@H](F)C[C@@H]1O", "class-name": "inactive"}
{"molecule": "O=c1onc2cnc3ccccc3n12", "class-name": "inactive"}
{"molecule": "Cn1c(=O)c2[nH]c(-c3ccc(S(=O)(=O)O)cc3)nc2n(C)c1=O", "class-name": "inactive"}
{"molecule": "C[C@H](Cc1ccccc1)Nc1ncnc2c1ncn2[C@@H]1O[C@H](CO)C(O)[C@H]1O (some centres undefined)", "class-name": "inactive"}

Consider now this further molecule.
Ask | Give the logged outcome of this assay for the following molecule: "N[C@@H](CS(=O)O)C(=O)O"
Reply | inactive

---

assay: qHTS assay to identify small molecule antagonists of the thyroid receptor (TR) signaling pathway (AID 743065); also: nearly all actives have a fitted effect of over 55% in size
test-parameters: GH3.TRE-Luc, T3-stimulated luciferase inhibition, 23.5 h; series mostly up to 70.3 µM
Results filed as inconclusive are left out. The source made the active and inactive calls. The call rests on the fitted dose curve; in most records, active means well fitted inhibition curve with a large enough effect in the repeat runs; inconclusive means weak or mixed curves; inactive means no such curve, though single readings can be large or run the other way.
Hi! Could you answer with just one of these? class 1 = active, class 0 = inactive

{"compound": "FC(F)(F)COCC(F)(F)F", "class-name": "class 0"}

Ask | Give the logged outcome of this assay for the following compound: O=C(CCCN1CCN2CCCC2C1)c1ccc(F)cc1 (stereo not given)
Reply | class 0

Ask | Give the logged outcome of this assay for the following compound: C=CC1=C(C(=O)O)N2C(=O)[C@@H](NC(=O)/C(=N\O)c3csc(N)n3)[C@H]2SC1 (stereo in doubt)
Reply | class 0

Ask | Give the logged outcome of this assay for the following compound: "CC1(C)S[C@@H]2[C@H](NC(=O)[C@H](N)c3ccc(O)cc3)C(=O)N2[C@H]1C(=O)O"
Reply | class 0

Ask | Give the logged outcome of this assay for the following compound: "CC(=O)[C@]1(O)Cc2c(O)c3c(c(O)c2[C@@H](O[C@H]2C[C@H](N)[C@H](O)[C@H](C)O2)C1)C(=O)c1ccccc1C3=O"
Reply | class 1

Ask | Give the logged outcome of this assay for the following compound: "O=C1OC(=O)c2cc(-c3ccc4c(c3)C(=O)OC4=O)ccc21"
Reply | class 0

Ask | Give the logged outcome of this assay for the following compound: "Cc1c(O)c(=O)ccn1C"
Reply | class 0

Ask | Give the logged outcome of this assay for the following compound: "CN[C@H]1CC[C@@H](c2ccc(Cl)c(Cl)c2)c2ccc(S(N)(=O)=O)cc21"
Reply | class 1

Ask | Give the logged outcome of this assay for the following compound: CCCC(CCC)C(=O)OC1C[C@H]2CC[C@@H](C1)[N+]2(C)C (stereo not given in full)
Reply | class 0

Ask | Give the logged outcome of this assay for the following compound: "N=C(N)c1ccc(/C=C/c2ccc(C(=N)N)cc2O)cc1"
Reply | class 0

---

target-or-test-system: Progesterone receptor (Homo sapiens) (UniProt P06401)
Sequence (P06401 whole entry, looked up): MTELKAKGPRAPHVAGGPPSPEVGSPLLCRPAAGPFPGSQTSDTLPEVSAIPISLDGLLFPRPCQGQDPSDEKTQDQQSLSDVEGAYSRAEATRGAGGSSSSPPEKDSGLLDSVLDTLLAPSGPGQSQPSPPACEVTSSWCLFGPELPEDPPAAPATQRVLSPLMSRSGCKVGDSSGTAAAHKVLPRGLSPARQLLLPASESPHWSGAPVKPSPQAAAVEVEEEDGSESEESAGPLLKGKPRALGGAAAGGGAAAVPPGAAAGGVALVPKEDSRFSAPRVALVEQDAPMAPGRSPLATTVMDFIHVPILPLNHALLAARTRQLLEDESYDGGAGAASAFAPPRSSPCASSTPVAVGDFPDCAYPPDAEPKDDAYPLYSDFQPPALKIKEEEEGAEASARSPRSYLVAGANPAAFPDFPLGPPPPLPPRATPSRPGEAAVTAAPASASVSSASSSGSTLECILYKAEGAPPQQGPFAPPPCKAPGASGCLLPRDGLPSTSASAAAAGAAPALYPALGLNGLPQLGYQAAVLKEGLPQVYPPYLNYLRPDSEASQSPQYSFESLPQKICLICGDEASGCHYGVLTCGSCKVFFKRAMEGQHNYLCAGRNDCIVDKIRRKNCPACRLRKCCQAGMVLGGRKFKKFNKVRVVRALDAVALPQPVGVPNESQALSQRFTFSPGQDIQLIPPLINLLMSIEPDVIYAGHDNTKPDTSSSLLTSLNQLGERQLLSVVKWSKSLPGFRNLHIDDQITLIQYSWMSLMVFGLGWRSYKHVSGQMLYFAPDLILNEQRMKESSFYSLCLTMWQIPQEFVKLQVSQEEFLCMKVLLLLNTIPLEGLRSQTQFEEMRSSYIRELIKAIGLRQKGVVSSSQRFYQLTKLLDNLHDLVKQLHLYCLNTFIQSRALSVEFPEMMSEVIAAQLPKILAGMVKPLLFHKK
assay: qHTS assay to identify small molecule antagonists of the progesterone receptor (PR) signaling pathway (AID 1346795)
test-parameters: PR-UAS-bla HEK293T, beta-lactamase FRET ratio, 16 h; series mostly up to 92.4 µM
Inconclusive results are not listed. Active and inactive are the calls of the source. Calls follow the shape of the dose curve; as a rule, active = well fitted inhibition curve with a large enough effect in the signal ratio in the repeat runs (not every such curve was filed as active); inconclusive = weak or mixed curves; inactive = flat fitted curve, though single readings scatter; the % refers to the signal ratio.
Hi! Could you answer with just one of these? 1 (yes) = active, 0 (no) = inactive

Answered examples (3):
{"smi": "O=C1CCC(=O)N1", "target-or-test-system": "Progesterone receptor (Homo sapiens) (UniProt P06401)", "class-name": "0 (no)"}
{"smi": "CCOc1ccc([N+](=O)[O-])cc1", "target-or-test-system": "Progesterone receptor (Homo sapiens) (UniProt P06401)", "class-name": "1 (yes)"}
{"smi": "Cc1cccc(C)c1C", "target-or-test-system": "Progesterone receptor (Homo sapiens) (UniProt P06401)", "class-name": "0 (no)"}

Ask | Give the logged outcome of this assay for the following molecule: "CCOc1nc(F)cc2nc(S(=O)(=O)Nc3c(Cl)cccc3C(=O)OC)nn12"
Reply | 0 (no)

Ask | Give the logged outcome of this assay for the following molecule: "O=C(CCCCCCCCc1cccnc1)N1CCC(C=C(c2ccccc2)c2ccccc2)CC1"
Reply | 1 (yes)

Ask | Give the logged outcome of this assay for the following molecule: "Nc1ccc2c(S(=O)(=O)O)cccc2c1S(=O)(=O)O"
Reply | 0 (no)

---

assay: qHTS RealTime-Glo MT Cell Viability Assay in HepG2 cells - 8 hour (AID 1224873); also: nearly all actives have a fitted effect of over 55% in size
test-parameters: RealTime-Glo luminescence; series mostly up to 76.8 µM
Results filed as inconclusive are left out. Activity calls are given as the source filed them. Calls follow the shape of the dose curve; as a rule, active = well fitted cell-killing curve with a large enough effect in the repeat runs; inconclusive = weak or mixed curves; inactive = flat fitted curve, though single readings scatter.
Hi! Could you answer with just one of these? YES = active, NO = inactive

Answered examples (2):
{"smi": "CN1CCN(CCCN2c3ccccc3Sc3ccc(Cl)cc32)CC1", "class-name": "NO"}
{"smi": "c1ccc2c(c1)-c1ccc3ccc4cccc5cc-2c1c3c45", "class-name": "NO"}

Ask | Give the logged outcome of this assay for the following compound: "O=S(=O)(c1ccc(OCc2ccccc2)cc1)c1ccccc1O"
Reply | NO

Ask | Give the logged outcome of this assay for the following compound: "NCc1ccco1"
Reply | NO

Ask | Give the logged outcome of this assay for the following compound: "Nc1cccnc1N"
Reply | NO

Ask | Give the logged outcome of this assay for the following compound: "CN(C)CCOc1ccc(/C(=C(/CCCl)c2ccccc2)c2ccccc2)cc1"
Reply | YES

Ask | Give the logged outcome of this assay for the following compound: "O=C(c1ccccc1)c1ccc(Cl)cc1"
Reply | NO

---

assay: qHTS RealTime-Glo MT Cell Viability Assay in HEK293 cells - 40 hour (AID 1224874); also: % is scaled to controls: 0 for no effect and ±100 for the full control effect; nearly all actives have a fitted effect of over 50% in size
test-parameters: RealTime-Glo luminescence; hits give low values
Results filed as inconclusive are left out.
Readings of max response for the listed compounds
Expressed in %, but write only the number.

{"compound": "CC1=CC[C@@H](C(C)(C)O)CC1", "units-text": "%", "max response": 4.47}
{"compound": "CCCCCCCCCCCC(=O)Cl", "units-text": "%", "max response": 0.0053}
{"compound": "Nc1ccc2c(S(=O)(=O)O)cccc2c1S(=O)(=O)O", "units-text": "%", "max response": 5.38}
{"compound": "O=C(c1ccccc1)c1ccc(Cl)cc1", "units-text": "%", "max response": 0.405}
{"compound": "c1ccc2occc2c1", "units-text": "%", "max response": 2.38}

Ask | Sample "ClC(c1ccccc1)(c1ccccc1)c1ccccc1" — what was its max response?
Reply | -24.6

Ask | Sample CCc1cccc(C)c1N(C(=O)C(=O)O)C(C)COC (configuration not stated) — what was its max response?
Reply | 10.9

---

target-or-test-system: Estrogen receptor (Homo sapiens) (UniProt P03372)
Sequence (P03372 whole entry, looked up): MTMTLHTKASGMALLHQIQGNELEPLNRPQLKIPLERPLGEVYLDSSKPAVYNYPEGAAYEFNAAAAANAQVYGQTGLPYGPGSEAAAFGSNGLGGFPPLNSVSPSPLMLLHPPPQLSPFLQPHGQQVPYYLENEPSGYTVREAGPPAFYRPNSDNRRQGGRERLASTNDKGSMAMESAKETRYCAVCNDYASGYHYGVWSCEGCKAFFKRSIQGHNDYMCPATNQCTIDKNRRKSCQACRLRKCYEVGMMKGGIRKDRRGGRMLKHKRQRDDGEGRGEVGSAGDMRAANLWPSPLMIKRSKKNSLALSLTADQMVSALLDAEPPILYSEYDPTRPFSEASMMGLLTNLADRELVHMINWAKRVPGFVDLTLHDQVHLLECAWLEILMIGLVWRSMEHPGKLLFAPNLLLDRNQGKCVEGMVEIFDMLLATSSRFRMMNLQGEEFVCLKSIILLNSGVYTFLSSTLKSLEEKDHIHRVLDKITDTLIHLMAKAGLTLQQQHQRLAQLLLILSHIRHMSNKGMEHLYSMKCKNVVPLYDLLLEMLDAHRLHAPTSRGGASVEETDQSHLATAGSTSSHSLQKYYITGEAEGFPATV
assay: qHTS assay to identify small molecule antagonists of the estrogen receptor alpha (ER-alpha) signaling pathway (AID 743069)
test-parameters: HEK293 ER-alpha-UAS-bla, beta-lactamase ratio, antagonist mode; series mostly up to 69.4 µM
Inconclusive results are not listed. Activity calls are given as the source filed them. The call rests on the fitted dose curve; in most records, active means well fitted curve in the direction sought with a large enough effect in the signal ratio in the repeat runs (not every such curve was filed as active); inconclusive means weak or mixed curves, or effect the other way; inactive means no such curve, though single readings can be large or run the other way; the % refers to the signal ratio. Positions of bridges follow the written chain, without caps; N, C: chain ends. Non-standard residues stand in square brackets, D forms with d. Residues, ends and D or L forms follow the SMILES beside them. *: point of attachment. X1 = CC[C@@H](C)[C@@H](N)C1=N[C@H](C(=O)*)CS1; d(aIle) = CC[C@H](C)[C@@H](N)C(=O)O; dOrn = NCCC[C@@H](N)C(=O)O
Hi! Could you answer with just one of these? true (1) for active, false (0) for inactive

Answered examples (5):
{"molecule": "Cc1cnc(C(=O)O)c[n+]1[O-]", "class-name": "false (0)"}
{"molecule": "C=C1[C@@H]2CC[C@@H](C2)C1(C)C", "class-name": "false (0)"}
{"molecule": "C1CCc2nnnn2CC1", "class-name": "false (0)"}
{"molecule": "CC[C@@H](C)[C@@H](N)C1=N[C@H](C(=O)N[C@@H](CC(C)C)C(=O)N[C@@H](CCC(=O)O)C(=O)N[C@@H](C(=O)N[C@@H]2CCCCNC(=O)[C@@H](CC(N)=O)NC(=O)[C@@H](CC(=O)O)NC(=O)[C@@H](Cc3cnc[nH]3)NC(=O)[C@@H](Cc3ccccc3)NC(=O)[C@@H]([C@H](C)CC)NC(=O)[C@@H](CCCN)NC2=O)[C@@H](C)CC)CS1 (X1-LE[d(aIle)][dK][dOrn][dI][dF][dH][dD][dN]; lactam 4-C)", "class-name": "false (0)"}
{"molecule": "CC(C)Cc1ccc([C@H](C)C(=O)O)cc1", "class-name": "false (0)"}

Ask | Give the logged outcome of this assay for the following molecule: "CCCCCCCCOC(=O)c1cc(O)c(O)c(O)c1"
Reply | true (1)

Ask | Give the logged outcome of this assay for the following molecule: C[S+](C)CCC(N)C(=O)O (stereo not given)
Reply | false (0)

Ask | Give the logged outcome of this assay for the following molecule: "O=C1c2c(O)cccc2[C@H]([C@@H]2O[C@H](CO)[C@@H](O)[C@H](O)[C@H]2O)c2cc(CO)cc(O)c21"
Reply | false (0)

Ask | Give the logged outcome of this assay for the following molecule: "CCSCC"
Reply | false (0)

Ask | Give the logged outcome of this assay for the following molecule: "CO/N=C(\C(=O)N[C@@H]1C(=O)N2C(C(=O)O)=C(C[N+]3(C)CCCC3)CS[C@H]12)c1csc(N)n1"
Reply | false (0)
